- System: cisplatin-resistant cancer cells
- Measurement description: Drug sensitivity of cancer cells (apoptosis, cell viability)
- Format: cell-based, human
- Test settings: KB-3-1cisR and A549cisR, DLAT knockdown vs control; sublethal doses 48 h: 50 μM carboplatin, 10 nM gemcitabine, 10 μM etoposide, 0.5 μM pemetrexed, 3 nM paclitaxel, 1 μM erlotinib
Experimental readout: sensitization of cancer cells to the agent by impairment of DLAT

Examples with their reported sensitization of cancer cells to the agent by impairment of DLAT follow.
CC(=O)O[C@H]1C(=O)[C@@]2(C)[C@H]([C@H](OC(=O)c3ccccc3)[C@]3(O)C[C@H](OC(=O)[C@H](O)[C@@H](NC(=O)c4ccccc4)c4ccccc4)C(C)=C1C3(C)C)[C@]1(OC(C)=O)CO[C@@H]1C[C@@H]2O [paclitaxel] | sensitized
COc1cc([C@@H]2c3cc4c(cc3[C@@H](O[C@@H]3O[C@@H]5CO[C@@H](C)O[C@H]5[C@H](O)[C@H]3O)[C@H]3COC(=O)[C@H]23)OCO4)cc(OC)c1O [etoposide] | sensitized
C#Cc1cccc(Nc2ncnc3cc(OCCOC)c(OCCOC)cc23)c1 [erlotinib] | not
N.N.O=C([O-])C1(C(=O)[O-])CCC1.[Pt+2] [carboplatin] | sensitized

// query Jot down sensitization of cancer cells to the agent by impairment of DLAT (cisplatin-resistant cancer cells) of Nc1nc2[nH]cc(CCc3ccc(C(=O)N[C@@H](CCC(=O)O)C(=O)O)cc3)c2c(=O)[nH]1 [pemetrexed] .
// result sensitized

// query Write down the reported sensitization of cancer cells to the agent by impairment of DLAT (system: cisplatin-resistant cancer cells) of Nc1ccn([C@@H]2O[C@H](CO)[C@@H](O)C2(F)F)c(=O)n1 [gemcitabine]
// result sensitized
